system: Human alphaherpesvirus 3; assay: Antiviral activity against OKA strain of VZV in HEL ([…]) cells.; assay type: functional, organism-based; set-up: unit not given here
assay_metric: EC50

Here is how some compounds turned out for EC50.
mol: Nc1nc(N)n(CCOCP(=O)(O)O)c(=O)c1-c1ccccc1
result_value: > 0.15

mol: Cc1c(N)nc(N)nc1OCCOCP(=O)(O)O
result_value: 0.018

Now let's try a different one.
Report EC50 for C=CCc1c(N)nc(N)n(CCOCP(=O)(O)O)c1=O please.
> 0.15

* * *

What EC50 was measured for each of the following?
system: Cytomegalovirus; experiment: Antiviral activity against Davis strain of cytomegalovirus (CMV) in HEL ([…]) cells.; assay type: functional, organism-based

Here is how some compounds turned out for EC50.
compound: N#CCc1c(N)nc(N)n(CCOCP(=O)(O)O)c1=O
result_value: > 0.15 uM ml-1
//
compound: Nc1nc(N)c(Cl)c(OCCOCP(=O)(O)O)n1
result_value: > 0.6 uM ml-1

Give me EC50 for each of these compounds, listed below.
1. Nc1nc(N)c(CC(=O)O)c(OCCOCP(=O)(O)O)n1
2. C[C@H](Cn1cnc2c(N)ncnc21)OCP(=O)(O)O [TENOFOVIR ANHYDROUS]
3. Cc1c(N)nc(N)nc1OCCOCP(=O)(O)O
4. CCOC(=O)Cc1c(N)nc(N)nc1OCCOCP(=O)(O)O

1. > 0.15 uM ml-1
2. > 0.17 uM ml-1
3. > 0.15 uM ml-1
4. > 0.15 uM ml-1

* * *

tested on: Cytomegalovirus; assay: Antiviral activity against Davis strain of cytomegalovirus (CMV) in HEL ([…]) cells.; format: functional, organism-based
What EC50 was measured for each of the following?

Here is how some compounds turned out for EC50.
mol: Nc1ncnc2c1ncn2CCOCP(=O)(O)O
study_target: Cytomegalovirus
EC50: 0.27 uM ml-1

mol: CCOC(=O)Cc1c(N)nc(N)n(CCOCP(=O)(O)O)c1=O
study_target: Cytomegalovirus
EC50: > 0.15 uM ml-1

mol: Nc1nc(N)n(CCOCP(=O)(O)O)c(=O)c1Cc1ccccc1
study_target: Cytomegalovirus
EC50: > 0.15 uM ml-1

Give me EC50 for each of these compounds, listed below.
1. N#CCc1c(N)nc(N)nc1OCCOCP(=O)(O)O
2. Nc1nc(N)n(CCOCP(=O)(O)O)c(=O)c1CC(=O)O
3. Nc1nc(N)c(-c2ccccc2)c(OCCOCP(=O)(O)O)n1

1. > 0.15 uM ml-1
2. > 0.15 uM ml-1
3. > 0.15 uM ml-1

* * *

What EC50 was measured for each of the following?
tested on: Cytomegalovirus; assay: Antiviral activity against Davis strain of cytomegalovirus (CMV) in HEL ([…]) cells.; assay type: functional, organism-based

Here is how some compounds turned out for EC50.
mol: Nc1cc(OC[C@H](CO)OCP(=O)(O)O)nc(N)n1
assay_metric: EC50
result_value: 0.12 uM ml-1

mol: Nc1nc(N)c(Cc2ccccc2)c(OCCOCP(=O)(O)O)n1
assay_metric: EC50
result_value: > 0.15 uM ml-1

mol: C=CCc1c(N)nc(N)n(CCOCP(=O)(O)O)c1=O
assay_metric: EC50
result_value: > 0.15 uM ml-1

mol: C=CCc1c(N)nc(N)nc1OCCOCP(=O)(O)O
assay_metric: EC50
result_value: > 0.15 uM ml-1

mol: Nc1cc(OCCOCP(=O)(O)O)nc(N)n1
assay_metric: EC50
result_value: > 0.19 uM ml-1

Now let's try a different one.
Report EC50 for Nc1nc(N)n(CCOCP(=O)(O)O)c(=O)c1-c1ccccc1 please.
> 0.15 uM ml-1
